# study.system: HLA-A*02:01 (Homo sapiens, UniProt P04439, D140Y/D185E/D98H/E176V/E277Q/G131W/G231S/I119V/I121R/I166T/I218V/L300P/L318F/N151K/N90K/P208A/P217A/Q86G/Q94H/R138H/R169H/T345S)
# assay.details: MHC binding assay (UV-ligand exchange, beta2m ELISA, peptide exchange yield)
# applied.conditions: binding of HLA-class I restricted peptides to HLA-A*02:01, ranged by peptide exchange yield (UV-ligand exchange, β2m ELISA)
property.measured: Peptide exchange

// below: answered substances
substance	Peptide exchange
474 (YLDPALELGPRNV; listed as Homo sapiens) [compound 474]	″+++″ (≥50% = +++)
458 (SLIDKLYNI; listed as Homo sapiens) [compound 458]	″++″ (≥20% = ++)
436 (HLAEVSAEV; listed as Homo sapiens) [compound 436]	″+++″ (≥50% = +++)
150 (RLWEEGEELEL; listed as Homo sapiens) [compound 150]	″+++″ (≥50% = +++)
87 (ALPEAPAPLLPHIT; listed as Homo sapiens) [compound 87]	″++″ (≥20% = ++)
355 (SIQQSIERLLV; listed as Homo sapiens) [compound 355]	″++″ (≥20% = ++)
555 (YVLEGLKSV; listed as Homo sapiens) [compound 555]	″+++″ (≥50% = +++)

Turning now to a further substance:
Sample 573 (ILVANAIVGV; listed as Homo sapiens) [compound 573] — what was its Peptide exchange?
″+++″ (≥50% = +++)

====

# study.system: HLA-A*02:01 (Homo sapiens, UniProt P04439, D140Y/D185E/D98H/E176V/E277Q/G131W/G231S/I119V/I121R/I166T/I218V/L300P/L318F/N151K/N90K/P208A/P217A/Q86G/Q94H/R138H/R169H/T345S)
# assay.details: MHC binding assay (UV-ligand exchange, beta2m ELISA, peptide exchange yield)
# applied.conditions: binding of HLA-class I restricted peptides to HLA-A*02:01, ranged by peptide exchange yield (UV-ligand exchange, β2m ELISA)
property.measured: Peptide exchange

// below: answered substances
substance	Peptide exchange
145 (FLATSGTLAGI; listed as Homo sapiens) [compound 145]	″++″ (≥20% = ++)
283 (ALYIGDGYVIHLA; listed as Homo sapiens) [compound 283]	″+++″ (≥50% = +++)
480 (ALLEDSCHYL; listed as Homo sapiens) [compound 480]	″+++″ (≥50% = +++)
27 (ILADIVISA; listed as Homo sapiens) [compound 27]	″+++″ (≥50% = +++)
90 (TLLQIIETV; listed as Homo sapiens) [compound 90]	″+++″ (≥50% = +++)

Sample 548 (ALWENPESGEL; listed as Homo sapiens) [compound 548] — what was its Peptide exchange?
″++″ (≥20% = ++)

Ok, now 554 (LLMPSSEDLLL; listed as Homo sapiens) [compound 554]
″+++″ (≥50% = +++)

Ok, now 110 (FLSQVDFEL; listed as Homo sapiens) [compound 110]
″+++″ (≥50% = +++)

Ok, now 381 (FIDEAYVEV; listed as Homo sapiens) [compound 381]
″++″ (≥20% = ++)

Ok, now 521 (MLLTKLPTI; listed as Homo sapiens) [compound 521]
″+++″ (≥50% = +++)

Ok, now 622 (RLLGEEVVRVLQA; listed as Homo sapiens) [compound 622]
″+++″ (≥50% = +++)

Ok, now 369 (GLFPEHLIDV; listed as Homo sapiens) [compound 369]
″+++″ (≥50% = +++)

Ok, now 530 (VMYADIGGMDI; listed as Homo sapiens) [compound 530]
″+++″ (≥50% = +++)

Ok, now 32 (KLDDLTQDLTV; listed as Homo sapiens) [compound 32]
″++″ (≥20% = ++)

Ok, now 160 (FLFDEEIEQI; listed as Homo sapiens) [compound 160]
″+++″ (≥50% = +++)

Ok, now 620 (KLLNKIYEA; listed as Homo sapiens) [compound 620]
″++++″ (≥75% = ++++)

Ok, now 623 (YLVEDIQHI; listed as Homo sapiens) [compound 623]
″+++″ (≥50% = +++)

Ok, now 459 (ALITEVVRL; listed as Homo sapiens) [compound 459]
″++″ (≥20% = ++)

Ok, now 86 (NLIGKIENV; listed as Homo sapiens) [compound 86]
″+++″ (≥50% = +++)

Ok, now 610 (LLAPTPYIIGV; listed as Homo sapiens) [compound 610]
″+++″ (≥50% = +++)

Ok, now 396 (ALLPDLPAL; listed as Homo sapiens) [compound 396]
″+++″ (≥50% = +++)

Ok, now 117 (ILPDGEDFLAV; listed as Homo sapiens) [compound 117]
″+++″ (≥50% = +++)

====

# study.system: HLA-A*02:01 (Homo sapiens, UniProt P04439, D140Y/D185E/D98H/E176V/E277Q/G131W/G231S/I119V/I121R/I166T/I218V/L300P/L318F/N151K/N90K/P208A/P217A/Q86G/Q94H/R138H/R169H/T345S)
# assay.details: MHC binding assay (UV-ligand exchange, beta2m ELISA, peptide exchange yield)
# applied.conditions: binding of HLA-class I restricted peptides to HLA-A*02:01, ranged by peptide exchange yield (UV-ligand exchange, β2m ELISA)
property.measured: Peptide exchange

// below: answered substances
substance	result
471 (YLYNNMIAKI; listed as Homo sapiens) [compound 471]	″+++″ (≥50% = +++)
488 (FLAEDPKVTL; listed as Homo sapiens) [compound 488]	″+++″ (≥50% = +++)
510 (KLYSVVSQL; listed as Homo sapiens) [compound 510]	″++″ (≥20% = ++)
578 (FLDPGGPMMKL; listed as Homo sapiens) [compound 578]	″+++″ (≥50% = +++)

Sample 59 (IMEDIILTL; listed as Homo sapiens) [compound 59] — what was its Peptide exchange?
″+++″ (≥50% = +++)

Ok, now 24 (SLSDGLEEV; listed as Homo sapiens) [compound 24]
″++″ (≥20% = ++)

Ok, now 497 (GLLEKLTAI; listed as Homo sapiens) [compound 497]
″+++″ (≥50% = +++)

====

# study.system: HLA-A*02:01 (Homo sapiens, UniProt P04439, D140Y/D185E/D98H/E176V/E277Q/G131W/G231S/I119V/I121R/I166T/I218V/L300P/L318F/N151K/N90K/P208A/P217A/Q86G/Q94H/R138H/R169H/T345S)
# assay.details: MHC binding assay (UV-ligand exchange, beta2m ELISA, peptide exchange yield)
# applied.conditions: binding of HLA-class I restricted peptides to HLA-A*02:01, ranged by peptide exchange yield (UV-ligand exchange, β2m ELISA)
property.measured: Peptide exchange

// below: answered substances
substance	Peptide exchange
516 (AVGPASILKEV; listed as Homo sapiens) [compound 516]	″++″ (≥20% = ++)
341 (SQIALNEKLVNL; listed as Homo sapiens) [compound 341]	″+++″ (≥50% = +++)
358 (ALDEYTSEL; listed as Homo sapiens) [compound 358]	″++++″ (≥75% = ++++)
256 (FLPPEHTIVYI; listed as Homo sapiens) [compound 256]	″+++″ (≥50% = +++)
430 (HLYSSIEHLTT; listed as Homo sapiens) [compound 430]	″+++″ (≥50% = +++)
553 (SLLNQDLHWSL; listed as Homo sapiens) [compound 553]	″++++″ (≥75% = ++++)

Sample 83 (ILAPTVMMI; listed as Homo sapiens) [compound 83] — what was its Peptide exchange?
″+++″ (≥50% = +++)

Ok, now 333 (FLPDANSSV; listed as Homo sapiens) [compound 333]
″++″ (≥20% = ++)

Ok, now 98 (LIIDQADIYL; listed as Homo sapiens) [compound 98]
″+++″ (≥50% = +++)

====

# study.system: HLA-A*02:01 (Homo sapiens, UniProt P04439, D140Y/D185E/D98H/E176V/E277Q/G131W/G231S/I119V/I121R/I166T/I218V/L300P/L318F/N151K/N90K/P208A/P217A/Q86G/Q94H/R138H/R169H/T345S)
# assay.details: MHC binding assay (UV-ligand exchange, beta2m ELISA, peptide exchange yield)
# applied.conditions: binding of HLA-class I restricted peptides to HLA-A*02:01, ranged by peptide exchange yield (UV-ligand exchange, β2m ELISA)
property.measured: Peptide exchange

substance	Peptide exchange
529 (LLADELITV; listed as Homo sapiens) [compound 529]	″+++″ (≥50% = +++)
331 (KVDTVWVNV; listed as Homo sapiens) [compound 331]	″+++″ (≥50% = +++)
367 (SLQNHNHQL; listed as Homo sapiens) [compound 367]	″+++″ (≥50% = +++)
599 (YLLNDASLISV; listed as Homo sapiens) [compound 599]	″+++″ (≥50% = +++)
402 (VLFSGALLGL; listed as Homo sapiens) [compound 402]	″++″ (≥20% = ++)
467 (FLAKDFNFL; listed as Homo sapiens) [compound 467]	″+++″ (≥50% = +++)
63 (YLLPSGGSVTL; listed as Homo sapiens) [compound 63]	″++″ (≥20% = ++)
401 (ILLDDTGLAYI; listed as Homo sapiens) [compound 401]	″+++″ (≥50% = +++)

Turning now to a further substance:
Sample 44 (ILDPISSGFLL; listed as Homo sapiens) [compound 44] — what was its Peptide exchange?
″++″ (≥20% = ++)
